assay: in vivo; conditions: mouse, in vivo, po, LD₅₀, oral administration, male mice, Litchfield-Wilcoxon's method, dead mice during one week
measurementLabel: LD50 at 168 h (mg/kg)
Output spec: scalar in mg/kg, unitless text.

I would be grateful if you could share the reported LD50 at 168 h for Cc1oc(=O)oc1COC(=O)Cc1ccccc1Nc1c(Cl)cccc1Cl .
460
